Experiment: in vivo
Details: mouse, po, female mice, read-out: LD50 values p.o. female
measurement_label: LD50 (mg/kg)
Form entry: value (mg/kg) — number only.

Using the record for CCCCC1C(=O)OC(CCCNC(=N)N)C(C)C(O)C(C)C=C(C)CCCCC(O)CC(O)CC(O)CC(O)CC(O)C(OC2OC(CO)C(O)C2O)C=C(C)C(O)CCCC(O)CCCC(O)CCC(C)C1O (stereo not shown) [Pseudo-primycin-A1-acetate] , report its LD50.
1580

* * *

Assay: in vivo
Conditions: mouse, iv, male mice, read-out: LD50 values i.v. male
measurement_label: LD50 (mg/kg)
Write the answer as a number in mg/kg, unit excluded.

Query (compound): CCCCC1C(=O)OC(CCCNC(=N)N)C(C)C(O)C(C)C=C(C)CCCCC(O)CC(O)CC(O)CC(O)CC(O)C(OC2OC(CO)C(O)C2O)C=C(C)C(O)CCCC(O)CCCC(O)CCC(C)C1O (stereo not shown) [Pseudo-primycin-A1-acetate] ; field requested: LD50
17.7

Taken from patent US5260426A.
